biological target: T1, P1; experiment: ITC
T1 chain: GPPPRGPPPR-NH2
Ends that are not written are not given here.
reportedProperty: Kd

query: Please give measured Kd of the following entry: FBP21 tandem WW (protein) DPSKGRWVEGITSEGYHYYYDLISGASQWEKPEGFQGDLKKTAVKTVWVEGLSEDGFTYYYNTETGESRWEKPDD
result: > 1000 µM
